The measurements presented in this section are drawn from ChEMBL document CHEMBL1129727.

target: Adenosine receptors; A1 & A2 (Rattus norvegicus) (UniProt P29276+P25099+P30543); test: Selectivity ratio between A1 and A2-receptors estimated as A2/A1; format: protein assay
measurement_kind: Selectivity

Completed entries (count: 4):
{"compound": "Nc1nc(-c2ccccc2)nc2c1c1ccccc1n2-c1ccccc1", "Selectivity": 377}
{"compound": "O=C1Nc2ncnc(O)c2C12CCCC2", "Selectivity": 2.7}
{"compound": "Cc1c(C)n([C@H](C)c2ccccc2)c2nc(-c3ccccc3)nc(O)c12", "Selectivity": "> 10"}
{"compound": "Cc1nc2nc(-c3ccccc3)[nH]c(N[C@H](C)c3ccccc3)c-2c1C", "Selectivity": "> 4480"}

Here O=C1N(c2ccccc2)c2ncnc(O)c2C12CCCC2 was tested on Adenosine receptors; A1 & A2 (Rattus norvegicus) (UniProt P29276+P25099+P30543), and its Selectivity came to 13

Here Cc1nc2nc(-c3ccccc3)[nH]c(N[C@@H](C)c3ccccc3)c-2c1C was tested on Adenosine receptors; A1 & A2 (Rattus norvegicus) (UniProt P29276+P25099+P30543), and its Selectivity came to > 47

Here CC(c1ccccc1)N1C(=O)C2(CCCC2)c2c(O)ncnc21 (configuration not stated) was tested on Adenosine receptors; A1 & A2 (Rattus norvegicus) (UniProt P29276+P25099+P30543), and its Selectivity came to 26
